target: Helios (Homo sapiens, UniProt Q96SW2+Q9UKS7); test: Helios Human T Regulatory Cells Degradation Assay; format: cell-based; parameters: fluorescently labelled antibodies against Helios in 1× Permeabilization buffer; endogenous in cells; host or cells: cryopreserved human T regulatory cells; conditions: cryopreserved human T regulatory cells, incubated 20 hours, Helios-APC antibody staining, flow cytometry; read-out: hTreg Helios DC50
Sequence (Q9UKS7 whole entry): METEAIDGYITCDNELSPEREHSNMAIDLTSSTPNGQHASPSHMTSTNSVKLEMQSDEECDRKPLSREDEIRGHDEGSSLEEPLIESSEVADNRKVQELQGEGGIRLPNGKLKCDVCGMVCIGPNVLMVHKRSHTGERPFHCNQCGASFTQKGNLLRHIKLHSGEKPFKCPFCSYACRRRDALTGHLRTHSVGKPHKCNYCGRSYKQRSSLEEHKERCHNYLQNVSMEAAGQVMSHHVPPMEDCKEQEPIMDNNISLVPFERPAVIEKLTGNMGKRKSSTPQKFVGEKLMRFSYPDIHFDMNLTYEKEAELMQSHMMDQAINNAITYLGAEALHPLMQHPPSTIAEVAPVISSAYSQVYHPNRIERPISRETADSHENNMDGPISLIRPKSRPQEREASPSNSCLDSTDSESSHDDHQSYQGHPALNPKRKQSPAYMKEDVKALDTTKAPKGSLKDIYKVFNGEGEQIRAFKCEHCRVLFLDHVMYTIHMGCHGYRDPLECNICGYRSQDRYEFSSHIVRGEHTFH
Sequence (Q96SW2 whole entry): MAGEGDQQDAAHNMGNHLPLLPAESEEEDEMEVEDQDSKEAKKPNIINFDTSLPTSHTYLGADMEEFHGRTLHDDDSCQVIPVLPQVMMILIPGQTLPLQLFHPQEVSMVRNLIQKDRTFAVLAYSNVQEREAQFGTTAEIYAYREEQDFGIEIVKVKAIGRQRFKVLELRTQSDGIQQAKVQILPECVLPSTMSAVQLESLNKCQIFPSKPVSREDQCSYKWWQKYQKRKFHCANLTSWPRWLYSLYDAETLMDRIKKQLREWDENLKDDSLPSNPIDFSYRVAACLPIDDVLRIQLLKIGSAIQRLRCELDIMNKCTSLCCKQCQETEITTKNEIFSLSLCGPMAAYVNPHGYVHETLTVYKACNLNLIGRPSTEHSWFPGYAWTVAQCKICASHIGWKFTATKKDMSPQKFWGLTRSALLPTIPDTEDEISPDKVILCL
Sequence (Q16531 whole entry partner): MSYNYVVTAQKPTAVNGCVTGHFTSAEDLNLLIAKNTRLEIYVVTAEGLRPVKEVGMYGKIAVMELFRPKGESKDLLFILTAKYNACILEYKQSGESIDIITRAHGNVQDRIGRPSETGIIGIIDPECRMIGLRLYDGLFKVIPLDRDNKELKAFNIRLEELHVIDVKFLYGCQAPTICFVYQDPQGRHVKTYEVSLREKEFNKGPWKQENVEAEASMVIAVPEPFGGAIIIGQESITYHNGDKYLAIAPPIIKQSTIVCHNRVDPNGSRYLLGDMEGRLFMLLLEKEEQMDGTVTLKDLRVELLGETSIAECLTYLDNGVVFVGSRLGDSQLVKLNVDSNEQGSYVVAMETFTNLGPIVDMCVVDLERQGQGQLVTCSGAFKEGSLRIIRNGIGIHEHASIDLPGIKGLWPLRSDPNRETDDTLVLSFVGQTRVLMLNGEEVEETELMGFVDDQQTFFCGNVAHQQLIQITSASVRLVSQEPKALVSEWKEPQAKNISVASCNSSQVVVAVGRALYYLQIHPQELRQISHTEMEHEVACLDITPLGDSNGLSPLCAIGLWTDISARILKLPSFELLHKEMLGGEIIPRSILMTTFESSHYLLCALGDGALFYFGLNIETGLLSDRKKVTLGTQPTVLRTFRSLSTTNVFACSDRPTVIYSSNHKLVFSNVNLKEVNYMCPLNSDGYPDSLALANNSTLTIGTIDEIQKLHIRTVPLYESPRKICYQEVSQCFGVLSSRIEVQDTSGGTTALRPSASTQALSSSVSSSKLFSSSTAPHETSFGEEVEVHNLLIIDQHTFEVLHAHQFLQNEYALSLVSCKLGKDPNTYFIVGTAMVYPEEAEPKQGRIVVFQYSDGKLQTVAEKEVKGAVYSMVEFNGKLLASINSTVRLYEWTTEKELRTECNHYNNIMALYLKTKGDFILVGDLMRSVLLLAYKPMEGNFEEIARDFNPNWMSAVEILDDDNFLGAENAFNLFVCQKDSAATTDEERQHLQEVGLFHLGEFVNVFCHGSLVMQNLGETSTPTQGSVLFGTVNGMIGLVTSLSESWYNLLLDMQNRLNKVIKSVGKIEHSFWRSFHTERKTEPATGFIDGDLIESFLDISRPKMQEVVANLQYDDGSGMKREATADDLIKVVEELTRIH
measurement.type: DC50 (µM)

Completed entries (count: 3):
> print(dat)
                                   compound  measurement.type  measurement.unit  endpoint.result
1  CC1=CC2CN(Cc3ccnc(-c4ccc5c(c4)CN([C@H]4CCC(=O)NC4=O)C5=O)c3)CC2C1 (stereo partly shown) [Example 148]              DC50                µM           0.0037
2  O=C1CC[C@H](N2Cc3cc(-c4nccc(CN5C[C@H]6COC[C@H]6C5)c4F)ccc3C2=O)C(=O)N1 [Example 151]              DC50                µM            0.167
3  C[C@@](O)(c1ccccc1)[C@H]1CCCN1Cc1ccnc(-c2ccc3c(c2)CN(C2CCC(=O)NC2=O)C3=O)c1F (stereo partly shown) [Example 217]              DC50                µM             0.39

(I) O=C1CC[C@H](N2Cc3cc(-c4nccc(CN5C[C@H]6CCC(O)C[C@H]6C5)c4F)ccc3C2=O)C(=O)N1 (stereo partly shown) [Example 149]
(II) CC(C)(C)OC(=O)N1C[C@@H]2CN(Cc3ccnc(-c4ccc5c(c4)CN([C@H]4CCC(=O)NC4=O)C5=O)c3F)C[C@H]2C1 [Example 154]
Rank I against II by their DC50 values and give the higher one. Lab log: write the label of the selected item as the result.
II

----------
biological target: Helios (Homo sapiens, UniProt Q96SW2+Q9UKS7); test: Helios Human T Regulatory Cells Degradation Assay; type: cell-based; design: fluorescently labelled antibodies against Helios in 1× Permeabilization buffer; endogenous in cells; host or cells: cryopreserved human T regulatory cells; details: cryopreserved human T regulatory cells, incubated 20 hours, Helios-APC antibody staining, flow cytometry; read-out: hTreg Helios DC50
measurement.type: DC50 (nM)

> print(dat)
                                   compound  endpoint.result
1  C[C@@H]1c2c(ccc(-c3cc(CN4CC[C@H](F)C4)ccn3)c2F)C(=O)N1[C@H]1CCC(=O)NC1=O              706

(A) Cc1cnc(-c2ccc3c(c2)CN(C2CCC(=O)NC2=O)C3=O)cc1CN1CCC(C2CC2)C1 (stereo not shown)
(B) CC(O)C1CCN(Cc2ccnc(-c3ccc4c(c3)CN(C3CCC(=O)NC3=O)C4=O)c2)C1 (stereo not shown)
From the recorded data, which exceeds the other in DC50: A or B ? Pick one and reply with its label.
B

----------
target: Helios (Homo sapiens, UniProt Q96SW2+Q9UKS7); test: Helios Human T Regulatory Cells Degradation Assay; type: cell-based; parameters: fluorescently labelled antibodies against Helios in 1× Permeabilization buffer; endogenous in cells; host or cells: cryopreserved human T regulatory cells; settings: cryopreserved human T regulatory cells, incubated 20 hours, Helios-APC antibody staining, flow cytometry; read-out: hTreg Helios DC50
measurement.type: DC50 (nM)

> print(dat)
                                   compound                                    target  measurement.type  measurement.unit  endpoint.result
1  O=C1CCC(N2Cc3cc(-c4nccc(CN5CC[C@H](CO)C5)c4F)ccc3C2=O)C(=O)N1 (some centres unmarked)  Helios (Homo sapiens, UniProt Q96SW2+Q9UKS7)              DC50                nM             21.3
2  COc1cc(CN2CCC(C3CC3)C2)cc(-c2ccc3c(c2)CN(C2CCC(=O)NC2=O)C3=O)n1 (centres unmarked)  Helios (Homo sapiens, UniProt Q96SW2+Q9UKS7)              DC50                nM              0.2
3  O=C1CCC(N2Cc3cc(-c4nccc(CN5CC6CC(C5)C6O)c4F)ccc3C2=O)C(=O)N1 (centres unmarked)  Helios (Homo sapiens, UniProt Q96SW2+Q9UKS7)              DC50                nM              9.8
4  CC(C)(O)[C@H]1CCN(Cc2ccnc(-c3ccc4c(c3F)CN(C3CCC(=O)NC3=O)C4=O)c2F)C1 (some centres unmarked)  Helios (Homo sapiens, UniProt Q96SW2+Q9UKS7)              DC50                nM             34.3
5  CC(C)(C)OC(=O)[C@@H]1C[C@@H](OC(C)(C)C)CN1Cc1ccnc(-c2ccc3c(c2)CN(C2CCC(=O)NC2=O)C3=O)c1F (single isomer, unassigned)  Helios (Homo sapiens, UniProt Q96SW2+Q9UKS7)              DC50                nM              3.5

(a) O=C1CC[C@H](N2Cc3cc(-c4cc(CN5CC6CC(O)CC6C5)ccn4)ccc3C2=O)C(=O)N1 (some centres unmarked)
(b) O=C1CCC(N2Cc3cc(-c4nccc(CN5CC[C@H](F)C5)c4F)ccc3C2=O)C(=O)N1 (some centres unmarked)
(c) O=C1CC[C@H](N2Cc3cc(-c4cc(CN5C[C@H]6COC[C@H]6C5)ccn4)ccc3C2=O)C(=O)N1
(d) O=C1CC[C@H](N2Cc3cc(-c4cc(CN5CC6(CC(O)C6)C5)ccn4)ccc3C2=O)C(=O)N1
Please give the order of these compounds when sorted by DC50, largest value leading. I'd appreciate it if you listed the labels in the requested order.
b, c, a, d

----------
target: Helios (Homo sapiens, UniProt Q96SW2+Q9UKS7); test: Helios Human T Regulatory Cells Degradation Assay; format: cell-based; parameters: fluorescently labelled antibodies against Helios in 1× Permeabilization buffer; endogenous in cells; host or cells: cryopreserved human T regulatory cells; details: cryopreserved human T regulatory cells, incubated 20 hours, Helios-APC antibody staining, flow cytometry; read-out: hTreg Helios DC50
measurement.type: DC50 (nM)

// solved cases for DC50 follow
> print(dat)
                                   compound  measurement.type  measurement.unit  endpoint.result
1  CC(C)(O)[C@H]1CCN(Cc2ccnc(-c3ccc4c(c3)CN(C3CCC(=O)NC3=O)C4=O)c2F)C1 (some centres unmarked)              DC50                nM              9.8
2  O=C1CCC(N2Cc3cc(-c4cc(CN5CCC6(CC5)COC6)ccn4)ccc3C2=O)C(=O)N1 (centres unmarked)              DC50                nM              3.2
3  O=C1CCC(N2Cc3cc(-c4cc(CN5CC6(CCC6)C5)c(F)cn4)ccc3C2=O)C(=O)N1 (centres unmarked)              DC50                nM              1.7
4  CC(C)(O)C1CN(Cc2ccnc(-c3ccc4c(c3F)CN(C3CCC(=O)NC3=O)C4=O)c2F)C1 (centres unmarked)              DC50                nM             22.1
5  O=C1CCC(N2Cc3c(ccc(-c4nccc(CN5CC[C@H](CO)C5)c4F)c3F)C2=O)C(=O)N1 (some centres unmarked)              DC50                nM             31.9

(A) COCC1N(Cc2ccnc(-c3ccc4c(c3)CN(C3CCC(=O)NC3=O)C4=O)c2)CC12CCC2 (centres unmarked)
(B) CC(C)(O)C1CN(Cc2ccnc(-c3ccc4c(c3)CN(C3CCC(=O)NC3=O)C4=O)c2Cl)C1 (centres unmarked)
(C) O=C1CCC(N2Cc3cc(-c4nccc(CN5CCC6(CC5)CC(O)CO6)c4F)ccc3C2=O)C(=O)N1 (centres unmarked)
(D) O=C1CC[C@H](N2Cc3cc(-c4nccc(CN5CC6CCCC6C5)c4F)ccc3C2=O)C(=O)N1 (some centres unmarked)
(E) O=C1CC[C@H](N2Cc3cc(-c4cc(CN5CC6(CCOCC6)C5)ccn4)ccc3C2=O)C(=O)N1
Sort low-to-high on DC50, please. Answer format: the labels, ordered as requested.
E, A, D, B, C
(E: 3.2 nM, A: 6.4 nM, D: 10.9 nM, B: 17.1 nM, C: 2760 nM)

----------
target: Helios (Homo sapiens, UniProt Q96SW2+Q9UKS7); test: Helios Human T Regulatory Cells Degradation Assay; assay type: cell-based; parameters: fluorescently labelled antibodies against Helios in 1× Permeabilization buffer; endogenous in cells; host or cells: cryopreserved human T regulatory cells; conditions: cryopreserved human T regulatory cells, incubated 20 hours, Helios-APC antibody staining, flow cytometry; read-out: hTreg Helios DC50
measurement.type: DC50 (nM)

Below are worked cases with known answers.
> print(dat)
                                   molecule  measurement.type  endpoint.result
1  O=C1CCC(N2Cc3cc(-c4cc(CN5CC[C@@H](CO)C5)ccn4)ccc3C2=O)C(=O)N1 (stereo partly drawn)              DC50              8.1
2  Cc1cnc(-c2ccc3c(c2)CN(C2CCC(=O)NC2=O)C3=O)cc1CN1CCC(C(C)(C)O)CC1 (stereo not drawn)              DC50                1
3  O=C1CCC(N2Cc3cc(-c4nccc(CN5CCC(F)CC5)c4F)ccc3C2=O)C(=O)N1 (stereo not drawn)              DC50              140
4  O=C1CC[C@H](N2Cc3cc(-c4nccc(CN5CC6(CC(O)C6)C5)c4F)ccc3C2=O)C(=O)N1              DC50             15.3
5  O=C1CCC(N2Cc3cc(-c4cc(CN5CCC5COc5ccc(F)cc5)ccn4)ccc3C2=O)C(=O)N1 (stereo not drawn)              DC50              7.7

(1) CC1(C)CN(Cc2ccnc(-c3ccc4c(c3)CN(C3CCC(=O)NC3=O)C4=O)c2F)CCC1O (stereo not drawn)
(2) CC1(F)CCN(Cc2ccnc(-c3ccc4c(c3)CN(C3CCC(=O)NC3=O)C4=O)c2F)CC1 (stereo not drawn)
(3) CC(O)C1CCN(Cc2ccnc(-c3ccc4c(c3)CN(C3CCC(=O)NC3=O)C4=O)c2F)C1 (stereo not drawn)
(4) C[C@@H]1c2c(ccc(-c3cc(CN4CC[C@@H](CO)C4)ccn3)c2F)C(=O)N1[C@H]1CCC(=O)NC1=O
(5) O=C1CCC(N2Cc3cc(-c4cc(Cn5cccn5)ccn4)ccc3C2=O)C(=O)N1 (stereo not drawn)
Arrange the 5 molecules by rising DC50, starting with the smallest. Answer format: the labels, in the requested order.
3, 4, 2, 5, 1

(a) CC(C)(C)NC(=O)C1CCCN1Cc1ccnc(-c2ccc3c(c2)CN(C2CCC(=O)NC2=O)C3=O)c1 (stereo not drawn)
(b) O=C1CCC(N2Cc3cc(-c4cc(CN5CC[C@@H]5COc5ccc(Cl)nc5)ccn4)ccc3C2=O)C(=O)N1 (stereo partly drawn)
Lowest DC50? choose a or b Answer with the label corresponding to your selection.
a
(a: 28.7 nM, b: 53.6 nM)
